Let's look at some binders and their measured glycan array binding signal (z-score).
# TEST TARGET: Gal(a1-4)GlcNAc
# RUN DESCRIPTION: glycan array binding signal (z-score within array); higher = stronger binding
# CONDITION PARAMETERS: glycan notation: IUPAC condensed, linker removed
Many of the other results were omitted from the sample, so the strongest signals are more common in it than they were.
Output: the number by itself.

Here are 2 binders together with their reported answers.
Memo: Banana lectin (Musa acuminata) (protein) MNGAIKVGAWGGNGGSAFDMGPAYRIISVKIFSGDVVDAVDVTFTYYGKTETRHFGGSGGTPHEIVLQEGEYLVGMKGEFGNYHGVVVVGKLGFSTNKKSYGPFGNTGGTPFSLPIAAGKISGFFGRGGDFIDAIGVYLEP , reported glycan array binding signal (z-score): -0.194

Memo: SCA (Schizophyllum commune) (protein) MGIDQGVYLITNAGSGTAATLKDGYVKGWERIKGKEQLNQLWFVKSVKTSASDPGYAAFNLATNKVLDLEKGLADRGTPILGWDYHEGDNQHWVIKKQADGKYYKIQSVKTQTFVDLNNGGKDNGTKIQGWVGSWDETNSHQRWVFNQFSATGSRIKSILDTHPKIHGKVIVEWPDRIYFTPDQYIFEAIWAKTGLADIKPRDPLFQSEAYEKVFKGWVVSRAQEIIKVDGFDILVGSLSLVEKSTQKIKVLDVSVRTSDDKSPDLSQIVFFDPESGRTLVDIPEGYEVNSVII , reported glycan array binding signal (z-score): -0.135

Moving on to another binder below.
Memo: DBA (Dolichos biflorus) (protein) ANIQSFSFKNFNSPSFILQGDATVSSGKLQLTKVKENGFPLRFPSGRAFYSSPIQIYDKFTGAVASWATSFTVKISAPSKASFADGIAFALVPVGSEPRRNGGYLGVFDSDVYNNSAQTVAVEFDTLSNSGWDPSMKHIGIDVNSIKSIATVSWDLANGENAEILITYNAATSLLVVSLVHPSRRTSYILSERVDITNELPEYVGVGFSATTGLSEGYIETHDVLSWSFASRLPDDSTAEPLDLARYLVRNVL , reported glycan array binding signal (z-score): -0.126
